test protocol: Minocycline HCl compatibility tests with excipients (colour change, HPLC assay)
Format: physicochemical
stated conditions: Summary; compatibility tested after the storage for up to 3 weeks
parameter measured: Compatibility with Minocycline HCL

| compound | Compatibility with Minocycline HCL |
| --- | --- |
| C[Si]1(C)O[Si](C)(C)O[Si](C)(C)O[Si](C)(C)O[Si](C)(C)O1 [Cyclomethicone 5 NF] | Yes |
| OCC(O)CO [Glycerol] | No |
| CCCCCCCCCCC(CO)CCCCCCCC (stereo not drawn) [Octyldodecanol] | Yes |
| OCCCCO [Butylene glycol] | No |
| CC(C)OC(=O)CCCCC(=O)OC(C)C [Diisopropyl adipate] | Yes |
| CCCCCCCCCCCCCCCCCCO [Stearyl alcohol] | Yes |
| CC(C)CCCCCCCCCCCCCCC(=O)O [Isostearic Acid] | No |
| CC(O)CO (stereo not drawn) [Propylene glycol] | No |

Look up Compatibility with Minocycline HCL for this compound: CCCCCCCC/C=C\CCCCCCCCO [Oleyl alcohol]
Yes

Look up Compatibility with Minocycline HCL for this compound: CCO [Ethanol 95%]
No

Look up Compatibility with Minocycline HCL for this compound: CO[C@H]1CO[C@H]2[C@@H]1OC[C@H]2OC [Dimethyl Isosorbide]
No

Look up Compatibility with Minocycline HCL for this compound: CCCCCCCCCCCCCCO [Myristyl alcohol]
Yes

----------
test protocol: Doxycycline Hyclate compatibility test with excipients
Assay type: physicochemical
stated conditions: Summary; compatibility tested after the storage for up to 3 weeks
parameter measured: Compatibility with Doxycycline Hyclate

// solved cases for Compatibility with Doxycycline Hyclate follow
| compound | result |
| --- | --- |
| C[Si]1(C)O[Si](C)(C)O[Si](C)(C)O[Si](C)(C)O[Si](C)(C)O1 [Cyclomethicone 5 NF] | Yes |
| CCCCCCCC/C=C\CCCCCCCCO [Oleyl alcohol] | Yes |
| CO[C@H]1CO[C@H]2[C@@H]1OC[C@H]2OC [Dimethyl Isosorbide] | No |
| CCCCCCCCCCC(CO)CCCCCCCC (stereo not drawn) [Octyldodecanol] | No |
| CCCCCCCCCCCCCCO [Myristyl alcohol] | Yes |
| OCCCCO [Butylene glycol] | No |

Look up Compatibility with Doxycycline Hyclate for this compound: CC(O)CO (stereo not drawn) [Propylene glycol]
No

Look up Compatibility with Doxycycline Hyclate for this compound: CC(C)CCCCCCCCCCCCCCC(=O)O [Isostearic Acid]
Yes

Look up Compatibility with Doxycycline Hyclate for this compound: CCCCCCCCCCCCCCCCCCO [Stearyl alcohol]
Yes

Look up Compatibility with Doxycycline Hyclate for this compound: OCC(O)CO [Glycerol]
No

Look up Compatibility with Doxycycline Hyclate for this compound: CCO [Ethanol 95%]
Yes

Look up Compatibility with Doxycycline Hyclate for this compound: CC(C)OC(=O)CCCCC(=O)OC(C)C [Diisopropyl adipate]
Yes

----------
Source text: In one or more embodiments of the present disclosure, the foamable composition includes a potent solvent, in addition to or in place of one of the hydrophobic solvents, polar solvents or emollients of the composition. A potent solvent is a solvent other than mineral oil that solubilizes a specific active agent substantially better than a hydrocarbon solvent such as mineral oil or petrolatum.
parameter measured: Solubility in mineral oil

// solved cases for Solubility in mineral oil follow
| compound | Solubility in mineral oil |
| --- | --- |
| CCCC(=O)O[C@]1(C(=O)CO)CC[C@H]2[C@@H]3CCC4=CC(=O)CC[C@]4(C)[C@H]3[C@@H](O)C[C@@]21C [Hydrocortisone butyrate] | < 0.01% |
| CCCCC(=O)O[C@]1(C(=O)CO)[C@@H](C)C[C@H]2[C@@H]3CCC4=CC(=O)C=C[C@]4(C)[C@@]3(F)[C@@H](O)C[C@@]21C [Betamethasone valerate] | < 0.01% |
| C/C(=C\C(=O)OCCCCCCCCC(=O)O)C[C@@H]1OC[C@H](C[C@@H]2O[C@H]2[C@@H](C)[C@H](C)O)[C@@H](O)[C@H]1O [Mupirocin] | < 0.01% |
| Cc1cnc(NC(=O)C2=C(O)c3ccccc3S(=O)(=O)N2C)s1 [Meloxicam] | < 0.001% |
| CC(=O)N1CCN(c2ccc(OCC3COC(Cn4ccnc4)(c4ccc(Cl)cc4Cl)O3)cc2)CC1 (stereo not shown) [Ketoconazole] | < 0.01% |
| CC(=O)[C@H]1CC[C@H]2[C@@H]3CCC4=CC(=O)CC[C@]4(C)[C@H]3CC[C@]12C [Progesterone] | < 0.001% |

The record that follows has no Solubility in mineral oil shown yet.
Look up Solubility in mineral oil for this compound: Cc1ncc([N+](=O)[O-])n1CCO [Metronidazole]
< 0.01%

Hey, just so you know, these numbers are from patent US8343945B2.
